# maps each entry to its self-splicing fitness (ln)
Procedure summary: self-splicing fitness, log relative to wild type (ln ratio); higher = more splicing; Tetrahymena group I intron in knt gene, E. coli kanamycin selection, DiMSum; sequences stand for … in CUCUCU…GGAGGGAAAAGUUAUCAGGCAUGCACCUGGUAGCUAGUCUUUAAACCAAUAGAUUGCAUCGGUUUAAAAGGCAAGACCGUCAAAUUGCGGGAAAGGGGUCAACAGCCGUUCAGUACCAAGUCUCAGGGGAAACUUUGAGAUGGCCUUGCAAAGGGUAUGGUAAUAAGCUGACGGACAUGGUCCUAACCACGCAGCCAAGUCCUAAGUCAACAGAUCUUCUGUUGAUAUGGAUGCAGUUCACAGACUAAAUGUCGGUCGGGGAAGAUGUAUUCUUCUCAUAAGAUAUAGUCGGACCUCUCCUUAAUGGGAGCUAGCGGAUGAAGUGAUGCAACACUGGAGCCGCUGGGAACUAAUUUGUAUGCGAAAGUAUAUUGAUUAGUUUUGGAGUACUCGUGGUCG;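 note: selection with 25 µg/mL kanamycin versus none on LB agar overnight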
Experimental conditions: 30 °C
Could you keep your reply to the number by itself?

Residue codes	self-splicing fitness (ln)
UCCCAGCAAUAUUACGUAGU	-0.707

## Input Quick one: give measured self-splicing fitness (ln) for "CAGCAGCAAUAUUACGGAGG"
## Output -1.19

## Input Return self-splicing fitness (ln) (reported value) for this sequence: "UGGAAGCAAUAUUACGCGAA"
## Output -1.68

## Input Give the measured self-splicing fitness (ln) for "GUGUAGCAAUAUUACGGGCU"
## Output -2.88

## Input Return value of self-splicing fitness (ln) for input "UUGUAGCAAUAUUACGCGCG" , no commentary.
## Output -1.25

## Input Answer with reported self-splicing fitness (ln) of "ACCGAGCAAUAUUACGCGCC"
## Output -3.19

## Input Tell me measured self-splicing fitness (ln) for "CAAUAGCAAUAUUACGUCAU" please.
## Output -3.6

## Input Using the record for "GACUAGCAAUAUUACGGACA" , state its measured self-splicing fitness (ln).
## Output -0.472

## Input Specify self-splicing fitness (ln) for "GCCGAGCAAUAUUACGAGGC" and stop.
## Output -3.23

## Input Please give measured self-splicing fitness (ln) of the following entry: "CACGAGCAAUAUUACGCGGU"
## Output -3.13

## Input Tell me measured self-splicing fitness (ln) for "AGCAAGCAAUAUUACGCGUC" please.
## Output -3.61

## Input For the sequence "AGGAAGCAAUAUUACGGGUC" , report self-splicing fitness (ln).
## Output -3

* * *

Procedure summary: self-splicing fitness, log relative to wild type (ln ratio); higher = more splicing; Tetrahymena group I intron in knt gene, E. coli kanamycin selection, DiMSum; sequences stand for … in CUCUCU…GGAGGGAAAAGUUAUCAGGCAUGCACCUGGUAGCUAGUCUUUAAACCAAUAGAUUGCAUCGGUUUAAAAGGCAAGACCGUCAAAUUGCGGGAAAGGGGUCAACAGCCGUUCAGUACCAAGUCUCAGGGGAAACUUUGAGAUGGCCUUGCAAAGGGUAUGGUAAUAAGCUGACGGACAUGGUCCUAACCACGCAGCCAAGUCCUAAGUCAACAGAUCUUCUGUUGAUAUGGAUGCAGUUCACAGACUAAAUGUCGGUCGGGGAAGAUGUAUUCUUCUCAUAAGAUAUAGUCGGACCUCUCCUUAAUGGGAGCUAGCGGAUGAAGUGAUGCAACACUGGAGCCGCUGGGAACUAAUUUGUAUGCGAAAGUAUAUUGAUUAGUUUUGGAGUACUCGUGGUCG
Experimental conditions: 37 °C
Experimental readout: self-splicing fitness (ln)
Returns: the value as a bare number; no unit string appended.

Previously resolved entries follow.
Residue codes	self-splicing fitness (ln)
GUCAAGCAAUAUUACGACUA	-2.03
UGACAGCAAUAUUACGACAC	-2.04
AAAUAGCAAUAUUACGGAUC	-0.569
UUGUAGCAAUAUUACGGGUC	-2.83

## Input Provide only the value of recorded self-splicing fitness (ln) for "GGGCAGCAAUAUUACGUGCU"
## Output -2.16

## Input Given the sequence "GACUAGCAAUAUUACGGGCU" , write its reported self-splicing fitness (ln).
## Output -1.64

## Input Identify self-splicing fitness (ln) associated with the sequence "GCGGAGCAAUAUUACGCUGG"
## Output -2.1
